Assay: Cmax in human at 0.75 g, po bid
Conditions: in vivo
Measure Name: Cmax (ng/mL)
The answer is to be given in ng/mL; state only the numeric part.

Prompt: Data request, read-out Cmax, for O=C(O)c1cn(C2CC2)c2cc(N3CCNCC3)c(F)cc2c1=O
Completion: 3500

---

Assay: Cmax in human at 0.32 g, po
Format: ADME
Set-up: dose 0.32 g, route oral
Details: in vivo
Measure Name: Cmax (ng/mL)
The answer is to be given in ng/mL; state only the numeric part.

Prompt: Data request, read-out Cmax, for CO/N=C1\CN(c2nc3c(cc2F)c(=O)c(C(=O)O)cn3C2CC2)CC1CN (stereo unspecified)
Completion: 1000
